Listed here are compounds together with their documented fraction unbound.
studyTarget: serum albumin (Homo sapiens, UniProt P02768)
Sequence (P02768 whole entry): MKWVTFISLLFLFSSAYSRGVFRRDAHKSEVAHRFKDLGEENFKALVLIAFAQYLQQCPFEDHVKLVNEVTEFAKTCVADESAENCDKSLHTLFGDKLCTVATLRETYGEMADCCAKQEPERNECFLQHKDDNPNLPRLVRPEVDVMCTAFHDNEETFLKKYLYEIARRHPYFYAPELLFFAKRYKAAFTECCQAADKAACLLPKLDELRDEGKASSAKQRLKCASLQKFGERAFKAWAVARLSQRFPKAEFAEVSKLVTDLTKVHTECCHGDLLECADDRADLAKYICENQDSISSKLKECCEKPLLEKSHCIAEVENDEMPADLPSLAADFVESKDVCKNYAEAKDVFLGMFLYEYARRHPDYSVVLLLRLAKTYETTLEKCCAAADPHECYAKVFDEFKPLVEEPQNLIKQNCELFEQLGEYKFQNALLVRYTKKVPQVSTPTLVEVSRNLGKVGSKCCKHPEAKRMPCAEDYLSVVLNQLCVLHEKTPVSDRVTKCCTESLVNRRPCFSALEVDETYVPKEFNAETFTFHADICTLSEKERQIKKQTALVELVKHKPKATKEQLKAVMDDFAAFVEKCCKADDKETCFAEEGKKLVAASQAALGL
experimentDescription: Binding affinity to human serum albumin by HPLC analysis
Format: ADME
conditionSet: read-out: PB (converted)

# annotated cases, reported fraction unbound shown
# compound, measurementLabel, valueObserved
rows = [
    ("O=C(c1cc(-c2ccccc2)c2cccc(I)c2n1)N1CCOCC1", "fraction unbound", 0.0181),
    ("CCC(C)N(C)C(=O)c1cc2ccccc2c(-c2ccccc2Cl)n1 (stereo not drawn)", "fraction unbound", 0.0772),
    ("CN(C)C(=O)c1nc2ccccc2c(-c2ccccc2)c1CI", "fraction unbound", 0.0498),
]

Form field: fraction unbound recorded for `O=C(c1nc2ccccc2c(-c2ccccc2)c1CI)N1CCOCC1` with serum albumin (Homo sapiens, UniProt P02768) (enter value)
0.047

Form field: fraction unbound recorded for `O=C(c1cc(-c2ccccc2)c2cc(I)ccc2n1)N1CCOCC1` with serum albumin (Homo sapiens, UniProt P02768) (enter value)
0.0462

Form field: fraction unbound recorded for `O=C(c1cc(-c2ccccc2)c2cc(F)ccc2n1)N1CCOCC1` with serum albumin (Homo sapiens, UniProt P02768) (enter value)
0.122

Form field: fraction unbound recorded for `CCN(CC)C(=O)c1cc(-c2ccccc2I)c2ccccc2n1` with serum albumin (Homo sapiens, UniProt P02768) (enter value)
0.0591

Form field: fraction unbound recorded for `O=C(c1cc(-c2ccccc2I)c2ccccc2n1)N1CCOCC1` with serum albumin (Homo sapiens, UniProt P02768) (enter value)
0.0876

The origin of these recorded values is ChEMBL document CHEMBL3217571.
